B1: glmS ribozyme (parent)
chain: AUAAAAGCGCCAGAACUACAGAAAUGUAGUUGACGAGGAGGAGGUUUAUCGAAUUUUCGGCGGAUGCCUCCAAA

# Variants of: B1
# test-summary: self-cleavage kobs at 2500 uM GlcN6P; higher = faster cleavage; RNA array
# applied-conditions: with glucosamine-6-phosphate
Variants at the floor of the assay were thinned out.
For each entry below, report its self-cleavage kobs at 2500 uM GlcN6P value.
Give bare numbers, in s⁻¹.

Here are 5 variants together with their reported answers.
AUAAAAGCGCCAGAACUACAGAAAUGUAGUUGACGACGAGGAGGUUUAUCGAAUAUUCGGCGGGUGCCUCCAAA [G37C U55A A64G] : 4.29e-05
AUAAAAGCGCCAGAACUACAGAAAUGUAGUUGACGAGGAUGAGGUUGAUCGAAUUUUCGGCGGAUGCCUCCAAA [G40U U47G] : 0.000699
AUAAAAGCGCCAGAACUACAGAAAUGUAGUUGACGAGGAGGAGGUUUAUCUAUUUUUAGGCGGAUGCCUACAAA [G51U A53U C58A C70A] : 5.47e-05
AUAAAAGCGCCAGAUCUACAGAAAUGUAGGUGACGAGGAGGAGGUUUAUCGAAUUUUCGGCGGAUGCGUCCAAA [A15U U30G C68G] : 4.51e-05
AUAAAUGCGCCAGAACUACAGAAAUGUAGUUGAGGAGGAGGAGGUUGAUCGAAUUUUCGGCGGAUGUAUCCAAA [A6U C34G U47G C67U C68A] : 8.02e-05

For each listed entry, give its self-cleavage kobs at 2500 uM GlcN6P.
1. AUAAAAGCGCCAGAACUACAGAAAUGUAGUUGACGAGGAGGAGGUUUAUCGAAUAUUCGGCGGACGCUUCCAAA [U55A U65C C68U]
2. AUAAAAGCGCCAGAACUACAGAAAUGUAGUUGACGAGGAGGAGGUUAAUCGAAUCUUCGGCGGAUGCCCCCAAA [U47A U55C U69C]

(A)
1: 0.000114; 2: 0.000127

Batch lookup, self-cleavage kobs at 2500 uM GlcN6P per entry.
1. AUAAAAGCGCCAGAACUACAGAAAUGUAGUUGACGAGGAGGAGGUUUAUCGAAGUUUCGGCGGUUGCCUCCAAA [U54G A64U]
2. AUAAAAGCGCCAGAACUACAGAAAUGUAGUUGACGAGGAGGAGGUUUAUGGAAUUUUCCGCGGAUGCCUCCAAA [C50G G59C]
3. AUAAAAGCGCCGGAACUACAGAAAUGUAGUUGACGAGGAGGAGGUUUAUCGAAUUGUCGGCGGAUACCUCCAAA [A12G U56G G66A]
4. AUAAAAGCGCCAGAACUACAGAAAUGUAGUUGACGAGGAGGAGGUUUAUCGAAUUGUCAGCGGAUGCCUCCAAA [U56G G59A]

(A)
["7.47e-05", "5.58e-05", 0.000134, "3e-05"]

Hi! Can you tell me self-cleavage kobs at 2500 uM GlcN6P for each of these variants?
1. AUAAAAGCGCCAGAACUACAGAAAUGUAGCUGACGAGGAGGAGGUUUAUCGAAUAUUCGGCGGAUGCCGCCAAA [U30C U55A U69G]
2. AUAAAAGCGCCAGAACUACAGAAAUGUAGUUGACGAGGAGGAGGUUUAUGGAAUGUUCGGCGGAUGCCUCCAAA [C50G U55G]
3. AUAAAAGCGCCGGGACUACAGAAAUGUAGUUGACGAGGAGGAGGUUUAUCGAAUUUUCGGCGGAUGCCUCCAAA [A12G A14G]
4. AUAAAAGCGCCAGAACUACAGAAAUGUAGUUGACGAGGAGGAGGUUUAUCGAGUUUUCAGCGGAUGCCUCCAAA [A53G G59A]
5. AUAAAAGCGCCAGAACUACAGACAUGUAGUUGACGAGGAGGAGGUUUAUCGAAUUUUCGGCGGAUGCCACCAAA [A23C U69A]
6. AUAAAAGCGCUAGGACUACAGAAAUGUAGUUGGCGAGGAGGAGGUUUAUCGAAUUUUCGGCGGAUGCAUCAAAA [C11U A14G A33G C68A C71A]
7. AUAAAAGCACCGGAACUACAGAAAUGUAGUUGACGAGGAGGAGGUUUAUCGAAAUUUGGGGGGAUGCCUUCAAA [G9A A12G U54A C58G C61G C70U]

(A)
1. 7.73e-05
2. 4.97e-05
3. 0.00121
4. 3.91e-05
5. 0.000135
6. 0.000684
7. 0.000354
